- measurement notes: Concentration at steady state in rat blood at 1 mg/kg/hr, iv after 24 hrs
- Assay type: ADME, organism-based
- Parameters: route intravenous
- test context: read-out: Drug uptake
metric name: concentration at 24 h (nM)
Hi! Could you send only the number? It should be in nM, unit omitted.

Recorded concentration at 24 h of "CCc1cn2c3c(cc(C(=O)N[C@@H](Cc4ccccc4)[C@H](O)CNC4CC4)cc13)N(C)S(=O)(=O)CC2" , please.
604

---

- tested on: Beta-secretase 1 (Homo sapiens)
- Sequence (P56817 whole entry): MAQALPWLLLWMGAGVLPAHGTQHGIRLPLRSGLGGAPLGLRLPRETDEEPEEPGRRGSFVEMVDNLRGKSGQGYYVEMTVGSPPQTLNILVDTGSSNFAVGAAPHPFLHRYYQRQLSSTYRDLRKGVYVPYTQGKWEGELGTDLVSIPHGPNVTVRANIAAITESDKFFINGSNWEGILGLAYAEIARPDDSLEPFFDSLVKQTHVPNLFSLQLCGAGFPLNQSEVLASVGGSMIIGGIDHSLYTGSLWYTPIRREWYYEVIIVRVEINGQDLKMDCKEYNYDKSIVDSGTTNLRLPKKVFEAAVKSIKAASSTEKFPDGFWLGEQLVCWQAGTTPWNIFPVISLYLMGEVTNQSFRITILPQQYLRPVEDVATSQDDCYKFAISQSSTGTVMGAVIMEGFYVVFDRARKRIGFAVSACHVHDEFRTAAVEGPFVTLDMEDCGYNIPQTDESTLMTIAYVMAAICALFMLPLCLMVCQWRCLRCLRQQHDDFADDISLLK
- measurement notes: Inhibition of human BACE1 assessed as amyloid beta 42 production in human neuroblastoma cells after 24 hrs by immunoassay
- Type: cell-based
Parameter: pIC50. Scope: all listed entries.
Remember the convention: pIC50 equals -log10 of concentration in molar.

Some solved entries appear below for comparison.
INSERT INTO results (compound_string, metric_name, quantitative_result) VALUES
  ('CCc1cn2c3c(cc(C(=O)N[C@@H](Cc4ccccc4)[C@H](O)CNC)cc13)N(C)S(=O)(=O)CC2', 'pIC50', 7.24),
  ('CCNc1cc(C(=O)N[C@@H](Cc2ccccc2)[C@H](O)CNC2CC2)cc(N2CCCCS2(=O)=O)c1', 'pIC50', 5.90);

Next compound, please.
pIC50 of "CCc1cn2c3c(cc(C(=O)N[C@@H](Cc4ccccc4)[C@H](O)CNCc4ccccc4)cc13)N(C)S(=O)(=O)CC2" on Beta-secretase 1 (Homo sapiens)?
7.64
